Origin of the recorded values: paper PMC3499988

- measured.target: HIV-1 YU-2 gp120 (HIV-1 (YU-2), UniProt P35961)
- test.description: SPR
Let's look at some binders and their measured kon.
property.measured: kon (M⁻¹ s⁻¹)

>>> val("Fab m18 R24A (LCDR1) (Fab, V domains shown) VH: VQLLESGPGVVKPSETLSLTCTVSGASVNNYYWTWVRQPPGKGLEWIGNVYDSGDTNYNPSLSSRLSLSMDTSKNQFSLRLSSVTAADTATYYCARYHRHFIRGPLSFDYWGRGTLVTVSS VL: LQMTQSPSFLSASVGDRVSITCAASQDIQKFLAWYQLTPGDAPKLLMYSASTLQSGVPSRFSGSGSGTEFTLTISGLQPEDFATYYCQHLKRYPYTFGQGTKLEIS")
23000
>>> val("Fab m18 P61A (HCDR2) (Fab, V domains shown) VH: VQLLESGPGVVKPSETLSLTCTVSGASVNNYYWTWVRQPPGKGLEWIGNVYDSGDTNYNASLSSRLSLSMDTSKNQFSLRLSSVTAADTATYYCARYHRHFIRGPLSFDYWGRGTLVTVSS VL: LQMTQSPSFLSASVGDRVSITCRASQDIQKFLAWYQLTPGDAPKLLMYSASTLQSGVPSRFSGSGSGTEFTLTISGLQPEDFATYYCQHLKRYPYTFGQGTKLEIS")
33000
>>> val("Fab m18 K31A (LCDR1) (Fab, V domains shown) VH: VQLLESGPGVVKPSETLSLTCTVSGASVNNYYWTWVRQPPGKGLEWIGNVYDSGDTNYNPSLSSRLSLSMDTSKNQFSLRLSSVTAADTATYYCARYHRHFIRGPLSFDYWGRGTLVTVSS VL: LQMTQSPSFLSASVGDRVSITCRASQDIQAFLAWYQLTPGDAPKLLMYSASTLQSGVPSRFSGSGSGTEFTLTISGLQPEDFATYYCQHLKRYPYTFGQGTKLEIS")
29000
>>> val("Fab m18 Q30A (LCDR1) (Fab, V domains shown) VH: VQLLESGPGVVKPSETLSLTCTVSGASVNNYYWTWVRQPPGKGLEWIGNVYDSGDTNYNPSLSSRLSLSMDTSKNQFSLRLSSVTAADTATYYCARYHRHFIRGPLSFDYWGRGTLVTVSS VL: LQMTQSPSFLSASVGDRVSITCRASQDIAKFLAWYQLTPGDAPKLLMYSASTLQSGVPSRFSGSGSGTEFTLTISGLQPEDFATYYCQHLKRYPYTFGQGTKLEIS")
91000
>>> val("Fab m18 S62A (HCDR2) (Fab, V domains shown) VH: VQLLESGPGVVKPSETLSLTCTVSGASVNNYYWTWVRQPPGKGLEWIGNVYDSGDTNYNPALSSRLSLSMDTSKNQFSLRLSSVTAADTATYYCARYHRHFIRGPLSFDYWGRGTLVTVSS VL: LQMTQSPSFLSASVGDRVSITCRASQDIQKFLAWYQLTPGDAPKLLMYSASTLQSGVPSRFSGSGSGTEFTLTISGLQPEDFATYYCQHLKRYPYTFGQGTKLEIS")
35000
